QUANTITY_MEASURED: melting point

// known answers, use as guide
Cc1c(SCCN2CCOCC2)ccnc1CSc1nc2ccccc2n1CC(=O)O 223 to 225 °C
Oc1ccc(N2CCN(n3ccnc3)CC2)cc1 282 °C
O=C(NO)c1ccc(CNC(=O)c2[nH]c(-c3ccc(O)cc3)cc2-c2ccoc2)cc1 122 to 123 °C
COc1ccc(S(=O)(=O)Nc2ccncc2)c2c1[nH]c1ccccc12 311 to 313 °C
CCOC(=O)CNc1ccccc1C(N)=O 147 to 148 °C

Entry C=CC(=O)Oc1ccc(NS(=O)(=O)CC)cc1 needs its melting point filled in; supply it.
99 to 100 °C

----------
melting point values, listed per item

// known answers, use as guide
COMPOUND	RESULT
CCN(CC)CCN(c1ccc(C(=O)c2ccccc2)cc1)S(C)(=O)=O	74 to 76 °C
Nc1cc(-n2cc(C(=O)O)c(=O)c3c(O)c(F)c(F)cc32)c(F)cc1F	> 270 °C

Entry CCCCCCOc1ccc(NC(=O)c2cnc(C(=O)OC)c(OC)c2)cc1 needs its melting point filled in; supply it.
118 to 119 °C

Entry CCn1c([N+](=O)[O-])cnc1-c1nnc2ccc(Cl)nn12 needs its melting point filled in; supply it.
164 to 166 °C

Entry O=S(=O)(c1ccccc1)N1CCCC1c1ccc(Cl)cc1 (racemic) needs its melting point filled in; supply it.
122 °C

----------
melting point values, listed per item

COMPOUND	melting point
CCC(=O)c1ccc(S(=O)(=O)c2ccccc2)cc1	83 to 84 °C

Entry O=C(CBr)Nc1cccc(O)c1 needs its melting point filled in; supply it.
167 to 170 °C

Entry Cc1ccc2cccc(OCc3c(Cl)ccc(N)c3C#N)c2n1 needs its melting point filled in; supply it.
248 to 251 °C

Entry Cc1cc2c(cc1S(=O)(=O)c1cc(Cl)cc(Cl)c1)OC(C(=O)O)O2 (stereo unspecified) needs its melting point filled in; supply it.
210 to 214 °C

Entry COC(=O)C1=Cc2cc(-c3ccc(N4CCCCC4)cc3)ccc2S(=O)(=O)CC1 needs its melting point filled in; supply it.
202 to 204 °C

Entry Cc1c(F)c(F)c(C)c(C(=O)O)c1F needs its melting point filled in; supply it.
118 to 119 °C

----------
QUANTITY_MEASURED: melting point

// known answers, use as guide
COMPOUND	RESULT
Nc1ccnc2c(NC(=O)c3c(Cl)cccc3Cl)cccc12	265 to 275 °C
COc1cc2c(cc1Nc1ncc(Cl)c(Nc3ccccc3S(=O)(=O)N(C)C)n1)N(CC(=O)N(C)C)C(=O)CN(CC(=O)N(C)C)C2	154 °C
CCCCN(CCCC)c1ccc(C=Cc2ccc(C=CC3=C(C#N)C(=C(C#N)C#N)OC3(C)C(F)(F)F)cc2)c(OC)c1 (configuration not stated)	175 to 177 °C

From here, focus on the item given below.
Entry COC(=O)CCC(=O)c1ccc(-c2ccc(Cl)c(Cl)c2)cc1 needs its melting point filled in; supply it.
120 to 121 °C

----------
melting point values, listed per item

// known answers, use as guide
MOLECULE	melting point
CC(C)(C)c1cc(CN(c2cccnc2)S(=O)(=O)c2ccc([N+](=O)[O-])cc2)cc(C(C)(C)C)c1O	159 to 160 °C
N#CCCN(CCC#N)CC(=O)O	73 °C
Nc1ccc(S(=O)(=O)c2cc(-c3ccccc3Cl)nc(N3CCCC3)c2)cc1	188 to 190 °C
c1cc(COc2cccc(-c3nnn[nH]3)c2)cc(OCc2ccc3ccccc3n2)c1	169 to 172 °C
COc1cc(I)c(O)c(C=O)c1	103 to 105 °C
CC(=O)Nc1ccc(C(=O)N(CCN2CCC(C(=O)c3ccc(F)cc3)CC2)c2ccc(O)cc2)cc1	133 to 137 °C
Cc1ncccc1NC(=NC#N)NC(NC(=O)Cc1ccc(F)cc1)C(C)(C)C (stereo not given)	166 to 167 °C
c1ccc(CCCC2CCN(Cc3nc4ccccc4[nH]3)CC2)cc1	140 to 141 °C

From here, focus on the item given below.
Entry CC1Cc2ccc(Cl)cc2C(c2ccc([N+](=O)[O-])cc2)=NN1C(=S)Cl (stereo not given) needs its melting point filled in; supply it.
210 to 214 °C

----------
QUANTITY_MEASURED: melting point (°C)

COMPOUND	UNIT_TAG	melting point
Cc1ccc(S(=O)(=O)N2CCN(C(c3ccccc3)c3ccc(Cl)cc3)CC2)cc1 (single isomer, unassigned; (+))	°C	171
COCc1nnc2ccc(-c3ccccc3)nn12	°C	133

----------
melting point values, listed per item

// known answers, use as guide
MOLECULE	RESULT
COc1ccc2c(c1)C(CCNC(C)=O)CC2 (stereo not drawn)	73 to 74 °C
CCOC(=O)N1CCC(N2CCN(CC(=O)Nc3c(C)cccc3C)CC2)CC1Cc1ccc(Cl)c(Cl)c1 (stereo not drawn)	101 °C
Cc1ccccc1-c1nc(-c2ccccc2)c[nH]1	145 to 146 °C
COC(=O)CCc1oc2ccc(C#N)cc2c1C(=O)c1ccc(OC)cc1	95 to 98 °C
N#Cc1c(NC(=O)C2CCCCC2)sc(-c2ccccc2)c1Br	167 to 168 °C

Entry CCn1c(C)cc(=O)nc1S needs its melting point filled in; supply it.
190 °C

----------
melting point values, listed per item

MOLECULE	melting point
CCCc1nn(-c2ccc(C(F)(F)F)cn2)cc1CCCOc1nn(C2CCCCC2)cc1CC(=O)O	127 to 128 °C
CCCCc1cc(Cn2cnc3c(N)nc4ccccc4c32)no1	201 to 203 °C
CCC(CC)Nc1c([N+](=O)[O-])cc(C)c(Cl)c1[N+](=O)[O-]	61 to 62.5 °C

Entry COc1ccc(-c2ncn(CCCCCCCC(=O)O)c2-c2ccc(OC)cc2)cc1 needs its melting point filled in; supply it.
142 to 143 °C

Entry CON=C(C#N)c1ccc(Cl)c(CNC(=O)OC)c1 needs its melting point filled in; supply it.
104 to 107 °C

Entry O=C(N1CCNCC1)N1CCC(c2ccncc2)CC1 needs its melting point filled in; supply it.
116 to 117 °C

Entry Cc1cccc(NC(=O)N(C)C)c1 needs its melting point filled in; supply it.
124 to 127 °C

Entry Cc1ccc(S(=O)(=O)N2CCn3c(c(C(N)=O)c(Cl)c3-c3ccccc3)C2)cc1 needs its melting point filled in; supply it.
188 to 190 °C

Entry N#CCC1CC(c2ccccc2)=NO1 (centres undefined) needs its melting point filled in; supply it.
79 to 80.5 °C

----------
melting point values, listed per item

// known answers, use as guide
COMPOUND	QUANTITY_MEASURED	RESULT
CCC(=NN=C(c1ccc(Cl)cc1)c1ccc(OS(C)(=O)=O)cc1)NN=C(c1ccc(Cl)cc1)c1ccc(OS(C)(=O)=O)cc1	melting point	184 to 185 °C
O=C(Oc1cc(OC(=O)c2cc(O)cc(O)c2)c2ccccc2c1)c1cc(O)cc(O)c1	melting point	167 to 169 °C
Cc1ccc(S(=O)(=O)N[C@@H]2COC(C)(C)OC[C@H]2OS(=O)(=O)c2ccc(C)cc2)cc1 (relative stereo)	melting point	200 to 202 °C
CCOC(=O)C(C)(C)Oc1ccc(CCCC(=O)NN(Cc2cccc(OC)c2)C(N)=O)cc1	melting point	91.9 to 93.4 °C
CC1(C)c2ccc([N+](=O)[O-])cc2[C@@H](NC(=O)NCc2ccccc2)[C@@H]1O (relative stereo)	melting point	202 to 204 °C
O=C(Nc1ccccn1)C(CC1CCCC1)c1ccc([N+](=O)[O-])cc1 (stereo not given)	melting point	110 to 115 °C

Entry CCCCCCCCCCCCCCSCC(O)CNCCO (stereo not given) needs its melting point filled in; supply it.
71.4 to 73.2 °C

Entry O=S(c1nc2ccccc2s1)N1CCOCC1 (stereo not given) needs its melting point filled in; supply it.
93 to 94 °C

Entry CC(C)(C)NC(=O)Nc1nc2nc(N)ncc2cc1-c1cccnc1 needs its melting point filled in; supply it.
> 300 °C

Entry CC(=O)COc1ccc2ccc(Oc3c(Cl)cc(C(F)(F)F)cc3Cl)cc2c1 needs its melting point filled in; supply it.
132 °C

----------
melting point values, listed per item

// known answers, use as guide
COMPOUND	melting point
O=c1cc(COC2CCCCO2)occ1OCCCCBr (stereo not drawn)	71.5 °C
N=C(CSc1nc2cc(Cl)ccc2s1)NO	155 to 157 °C
COc1ccc(CCOc2cccc(-c3cccc(N)c3)n2)cc1OC	103 to 104 °C
CN(C)CC1CC(c2ccc(S(C)(=O)=O)cc2)=C(c2cc(F)cc(F)c2)C1=O (stereo not drawn)	104 to 106 °C
Cc1ccc(N(C=C(C#N)C#N)N=C(C#N)C#N)cc1	168 to 169 °C

Entry COc1c(Cl)cc(C(=O)O)c2c1OCCO2 needs its melting point filled in; supply it.
172 °C
